List of pEC50 values.
SYSTEM: T1, Human syndecan-1 (CD138) on the cell surface (human, UniProt P18827 23-310)
T1 construct: Endogenous on H929, KMS-11 and RT112/84 cells or transfected into Expi293 cells; also called human CD138; hCD138
T1 sequence: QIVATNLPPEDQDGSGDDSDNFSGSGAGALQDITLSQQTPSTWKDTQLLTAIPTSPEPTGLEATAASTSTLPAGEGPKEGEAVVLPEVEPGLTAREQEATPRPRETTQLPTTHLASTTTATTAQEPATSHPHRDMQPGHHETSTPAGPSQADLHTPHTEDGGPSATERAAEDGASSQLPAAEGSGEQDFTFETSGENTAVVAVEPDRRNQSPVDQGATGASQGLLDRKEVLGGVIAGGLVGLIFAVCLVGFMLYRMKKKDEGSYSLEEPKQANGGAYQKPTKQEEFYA
TEST DETAILS: FACS on RT-112 cells, four parameter fit
Hey, just a heads up that pEC50 is the negative log base 10 of the concentration in molar.

BINDER: F6 aks-rep (antibody, V domains shown, Humanized F12P16F6 expressed as whole antibody with human constant regions (kappa light chain)) VH: QVQLVQSGAEVVKPGASVKLSCKASGYTFTSYYLYWVKKAPGQGLDWIGEIYPRSGGTNYAEKFQGRVTLTADTSTSTAYLELSSLTSEDTAVYYCTRSLLYWGQGTTLTVSS VL: DVVMTQTPLSLSVTPGQPASISCKSSQSLLASDGKTYLNWLLQRPGQSPKRLIYLVSKLDSGVPNRFSGSGSGTDFTLQISRVEAEDVGLYYCWQGAHFPFTFGSGTKLEIKR
MEASUREMENT NAME: pEC50
QUANTITATIVE RESULT: 8.67

Which measured pEC50 value corresponds to F6 cka-rep (antibody, V domains shown, Humanized F12P16F6 expressed as whole antibody with human constant regions (kappa light chain)) VH: QVQLVQSGAEVVKPGASVKLSCKASGYTFTSYYLYWVKKAPGQGLDWIGEIYPRSGGTNINEKFLSRVTLTADTSTSTAYLELSSLTSEDTAVYYCTRSLLYWGQGTTLTVSS VL: DVVMTQTPLSLSVTPGQPASISCKSSQSLLASDGKTYLNWLLQRPGQSPKRLIYLVSKLDSGVPNRFSGSGSGTDFTLQISRVEAEDVGLYYCMQGAHFPFTFGGGTKVEIKR ?
8.61
